# Tested on: human non-small cell lung cancer cells (A549)
# Procedure summary: Anti-proliferative activity, CCK-8 assay, A549
# Type: cell-based
# Cond: 72 h incubation
Parameter measured: IC50 (nM)

See these solved cases before continuing.
Molecule	Assay value
Cc1c(=O)n(C)c(Nc2ccc(I)cc2F)c2c(=O)n(C3CC3)c(=O)n(-c3cccc(NC(=S)C(C)C)c3)c12 [Compound 7]	2.8
CC(=S)Nc1ccc(F)c(-n2c(=O)n(C3CC3)c(=O)c3c(Nc4ccc(I)cc4F)n(C)c(=O)c(C)c32)c1 [Compound 9]	4.4
CC(=S)Nc1cc(F)cc(-n2c(=O)n(C3CC3)c(=O)c3c(Nc4ccc(I)cc4F)n(C)c(=O)c(C)c32)c1 [Compound 10]	8.5
Cc1c(=O)n(C)c(Nc2ccc(I)cc2F)c2c(=O)n(C3CC3)c(=O)n(-c3cccc(NC(=S)CN)c3)c12 [Compound 12]	3.1

P = CC(=S)Nc1cc(-n2c(=O)n(C3CC3)c(=O)c3c(Nc4ccc(I)cc4F)n(C)c(=O)c(C)c32)ccc1F [Compound 11]
Q = CC(=S)Nc1cccc(-n2c(=O)n(C(C)C)c(=O)c3c(Nc4ccc(I)cc4F)n(C)c(=O)c(C)c32)c1 [Compound 3]
*Q* Quick one: lower IC50, P or Q ? To answer, give the label that identifies your chosen option.
*A* Q

###

# Measurement target: MEK2 (Homo sapiens, UniProt P36507)
# Sequence (P36507 whole entry): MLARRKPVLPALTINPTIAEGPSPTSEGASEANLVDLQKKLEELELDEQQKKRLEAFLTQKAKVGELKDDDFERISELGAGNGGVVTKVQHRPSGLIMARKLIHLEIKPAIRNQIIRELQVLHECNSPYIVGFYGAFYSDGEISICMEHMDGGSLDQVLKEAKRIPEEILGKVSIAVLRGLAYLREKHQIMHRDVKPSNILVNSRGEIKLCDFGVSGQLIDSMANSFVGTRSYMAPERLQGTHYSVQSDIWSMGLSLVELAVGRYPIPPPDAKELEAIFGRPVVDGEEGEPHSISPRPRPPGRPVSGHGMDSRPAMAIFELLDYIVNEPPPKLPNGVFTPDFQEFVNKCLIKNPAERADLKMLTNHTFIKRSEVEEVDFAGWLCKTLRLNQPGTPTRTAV
# Procedure summary: Raf-MEK-ERK cascade kinase assay using recombinant protein (MEK2)
# Cond: 10 μM ATP, active B-Raf (V599E), 30° C. 30 minutes
pIC50: −log10 of the molar value.
Parameter measured: pIC50

See these solved cases before continuing.
Given smiles	Assay value
CC(=S)Nc1cc(-n2c(=O)n(C3CC3)c(=O)c3c(Nc4ccc(I)cc4F)n(C)c(=O)c(C)c32)ccc1F	8.81
Cc1c(=O)n(C)c(Nc2ccc(I)cc2F)c2c(=O)n(C3CC3)c(=O)n(-c3cccc(NC(=S)C4CC4)c3)c12	8.91

a = Cc1c(=O)n(C)c(Nc2ccc(I)cc2F)c2c(=O)n(C3CC3)c(=O)n(-c3cccc(NC(=S)C(C)C)c3)c12
b = CC(=S)Nc1ccc(F)c(-n2c(=O)n(C3CC3)c(=O)c3c(Nc4ccc(I)cc4F)n(C)c(=O)c(C)c32)c1
*Q* Quick one: lower pIC50, a or b ? To answer, give the label that identifies your chosen option.
*A* b
(b: 8.65, a: 9.00)

###

# Measurement target: MEK1 (Homo sapiens, UniProt Q02750)
# Sequence (Q02750 whole entry): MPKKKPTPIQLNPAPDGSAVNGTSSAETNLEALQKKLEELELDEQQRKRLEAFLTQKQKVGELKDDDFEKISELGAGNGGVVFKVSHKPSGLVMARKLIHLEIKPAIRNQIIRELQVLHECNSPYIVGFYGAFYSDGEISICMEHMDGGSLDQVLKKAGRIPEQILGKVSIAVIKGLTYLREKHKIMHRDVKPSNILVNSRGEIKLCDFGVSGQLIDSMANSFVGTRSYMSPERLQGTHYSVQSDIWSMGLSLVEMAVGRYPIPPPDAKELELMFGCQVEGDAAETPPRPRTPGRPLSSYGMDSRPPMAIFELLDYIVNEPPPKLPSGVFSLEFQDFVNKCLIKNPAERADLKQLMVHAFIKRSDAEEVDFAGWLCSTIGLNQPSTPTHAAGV
# Procedure summary: Raf-MEK-ERK cascade kinase assay using recombinant protein (MEK1)
# Cond: 10 μM ATP, active B-Raf (V599E), 30° C. 30 minutes
pIC50: −log10 of the molar value.
Parameter measured: pIC50

Compound	pIC50
CC(=S)Nc1ccc(F)c(-n2c(=O)n(C3CC3)c(=O)c3c(Nc4ccc(I)cc4F)n(C)c(=O)c(C)c32)c1 [Compound 9]	8.64
Cc1c(=O)n(C)c(Nc2ccc(I)cc2F)c2c(=O)n(C3CC3)c(=O)n(-c3cccc(NC(=S)C(C)C)c3)c12 [Compound 7]	9.02
Cc1c(=O)n(C)c(Nc2ccc(I)cc2F)c2c(=O)n(C3CC3)c(=O)n(-c3cccc(NC(=S)CN)c3)c12 [Compound 12]	8.82
Cc1c(=O)n(C)c(Nc2ccc(I)cc2F)c2c(=O)n(C3CC3)c(=O)n(-c3cccc(NC(=S)CO)c3)c12 [Compound 8]	8.80
CC(=S)Nc1cccc(-n2c(=O)n(C3CCCC3)c(=O)c3c(Nc4ccc(I)cc4F)n(C)c(=O)c(C)c32)c1 [Compound 4]	8.87

P = Cc1c(=O)n(C)c(Nc2ccc(I)cc2F)c2c(=O)n(C3CC3)c(=O)n(-c3cccc(NC(=S)C4CC4)c3)c12 [Compound 6]
Q = CC(=S)Nc1cccc(-n2c(=O)n(C(C)C)c(=O)c3c(Nc4ccc(I)cc4F)n(C)c(=O)c(C)c32)c1 [Compound 3]
*Q* Lab note: record which item had the higher pIC50, P or Q . To answer, give the label that identifies your chosen option.
*A* Q
(Q: 9.05, P: 8.73)

###

# System: human prostate cancer cells (PC-3)
# Procedure summary: Anti-proliferative activity, CCK-8 assay, PC-3
# Type: cell-based
# Cond: 72 h incubation
pIC50: −log10 of the molar value.
Parameter measured: pIC50

a = Cc1c(=O)n(C)c(Nc2ccc(I)cc2F)c2c(=O)n(C3CC3)c(=O)n(-c3cccc(NC(=S)C(C)C)c3)c12 [Compound 7]
b = CC(=O)Nc1cccc(-n2c(=O)n(C3CC3)c(=O)c3c(Nc4ccc(I)cc4F)n(C)c(=O)c(C)c32)c1 [Trametinib, reference compound]
*Q* Quick one: lower pIC50, a or b ? To answer, give the label that identifies your chosen option.
*A* b

a = CC(=S)Nc1cccc(-n2c(=O)n(C3CCCC3)c(=O)c3c(Nc4ccc(I)cc4F)n(C)c(=O)c(C)c32)c1 [Compound 4]
b = Cc1c(=O)n(C)c(Nc2ccc(I)cc2F)c2c(=O)n(C3CC3)c(=O)n(-c3cccc(NC(=S)C4CC4)c3)c12 [Compound 6]
*Q* Lab note: record which item had the higher pIC50, a or b . To answer, give the label that identifies your chosen option.
*A* a

###

# Tested on: human colon cancer cells (HCT116)
# Procedure summary: Anti-proliferative activity, CCK-8 assay, HCT116
# Format: cell-based
# Cond: HCT-116, 72 h incubation
pIC50: −log10 of the molar value.
Parameter measured: pIC50

P = Cc1c(=O)n(C)c(Nc2ccc(I)cc2F)c2c(=O)n(C3CC3)c(=O)n(-c3cccc(NC(=S)C(C)C)c3)c12 [Compound 7]
Q = Cc1c(=O)n(C)c(Nc2ccc(I)cc2F)c2c(=O)n(C3CC3)c(=O)n(-c3cccc(NC(=S)C4CC4)c3)c12 [Compound 6]
R = CC(=S)Nc1ccc(F)c(-n2c(=O)n(C3CC3)c(=O)c3c(Nc4ccc(I)cc4F)n(C)c(=O)c(C)c32)c1 [Compound 9]
S = CC(=O)Nc1cccc(-n2c(=O)n(C3CC3)c(=O)c3c(Nc4ccc(I)cc4F)n(C)c(=O)c(C)c32)c1 [Trametinib, reference compound]
*Q* // sort listed items: pIC50 descending I would appreciate it if you listed the labels in the requested order.
*A* Q, P, R, S
(Q: 8.80, P: 8.57, R: 8.28, S: 7.49)

1 = CC(=S)Nc1cc(F)cc(-n2c(=O)n(C3CC3)c(=O)c3c(Nc4ccc(I)cc4F)n(C)c(=O)c(C)c32)c1 [Compound 10]
2 = CC(=S)Nc1cc(-n2c(=O)n(C3CC3)c(=O)c3c(Nc4ccc(I)cc4F)n(C)c(=O)c(C)c32)ccc1F [Compound 11]
*Q* Quick one: lower pIC50, 1 or 2 ? To answer, give the label that identifies your chosen option.
*A* 1
(1: 8.19, 2: 8.51)

###

# Measurement target: MEK1 (Homo sapiens)
# Procedure summary: Raf-MEK-ERK cascade kinase assay using recombinant protein (MEK1)
# Assay type: biochemical
# Cond: 10 μM ATP, active B-Raf (V599E), 30° C. 30 minutes
Parameter measured: IC50 (nM)

See these solved cases before continuing.
Given smiles	IC50 / nM
CC(=S)Nc1cccc(-n2c(=O)n(C3CC3)c(=O)c3c(Nc4ccc(I)cc4F)n(C)c(=O)c(C)c32)c1	1.83
CC(=S)Nc1cc(-n2c(=O)n(C3CC3)c(=O)c3c(Nc4ccc(I)cc4F)n(C)c(=O)c(C)c32)ccc1F	1.37

I = CC(=S)Nc1cccc(-n2c(=O)n(C)c(=O)c3c(Nc4ccc(I)cc4F)n(C)c(=O)c(C)c32)c1
II = CC(=S)Nc1cc(F)cc(-n2c(=O)n(C3CC3)c(=O)c3c(Nc4ccc(I)cc4F)n(C)c(=O)c(C)c32)c1
*Q* Quick one: lower IC50, I or II ? To answer, give the label that identifies your chosen option.
*A* I
(I: 1.21 nM, II: 2.01 nM)

###

# System: human prostate cancer cells (PC-3)
# Procedure summary: Anti-proliferative activity, CCK-8 assay, PC-3
# Type: cell-based
# Cond: 72 h incubation
Parameter measured: IC50 (nM)

Given smiles	Parameter measured	Assay value
CC(=S)Nc1cc(-n2c(=O)n(C3CC3)c(=O)c3c(Nc4ccc(I)cc4F)n(C)c(=O)c(C)c32)ccc1F	IC50	2.7
CC(=S)Nc1cccc(-n2c(=O)n(C(C)C)c(=O)c3c(Nc4ccc(I)cc4F)n(C)c(=O)c(C)c32)c1	IC50	1.9
CC(=S)Nc1ccc(F)c(-n2c(=O)n(C3CC3)c(=O)c3c(Nc4ccc(I)cc4F)n(C)c(=O)c(C)c32)c1	IC50	1.9
CC(=S)Nc1cccc(-n2c(=O)n(C3CC3)c(=O)c3c(Nc4ccc(I)cc4F)n(C)c(=O)c(C)c32)c1	IC50	3.6
Cc1c(=O)n(C)c(Nc2ccc(I)cc2F)c2c(=O)n(C3CC3)c(=O)n(-c3cccc(NC(=S)CN)c3)c12	IC50	2.3
Cc1c(=O)n(C)c(Nc2ccc(I)cc2F)c2c(=O)n(C3CC3)c(=O)n(-c3cccc(NC(=S)CO)c3)c12	IC50	2.4
CC(=S)Nc1cc(F)cc(-n2c(=O)n(C3CC3)c(=O)c3c(Nc4ccc(I)cc4F)n(C)c(=O)c(C)c32)c1	IC50	2.3
CCC(=S)Nc1cccc(-n2c(=O)n(C3CC3)c(=O)c3c(Nc4ccc(I)cc4F)n(C)c(=O)c(C)c32)c1	IC50	3.3
CC(=S)Nc1cccc(-n2c(=O)n(C)c(=O)c3c(Nc4ccc(I)cc4F)n(C)c(=O)c(C)c32)c1	IC50	2.4
Cc1c(=O)n(C)c(Nc2ccc(I)cc2F)c2c(=O)n(C3CC3)c(=O)n(-c3cccc(NC(=S)C(=O)O)c3)c12	IC50	4.5

Where these numbers come from: patent US12168659B2
